molecular target: T1, human LIGHT (TNFSF14), full length, membrane-bound (214E allele) (human, UniProt O43557 1-240); test: flow cytometry, EL4-LIGHT cells
T1 construct: also called membrane LIGHT; human membrane LIGHT
T1 sequence (O43557 whole entry K214E): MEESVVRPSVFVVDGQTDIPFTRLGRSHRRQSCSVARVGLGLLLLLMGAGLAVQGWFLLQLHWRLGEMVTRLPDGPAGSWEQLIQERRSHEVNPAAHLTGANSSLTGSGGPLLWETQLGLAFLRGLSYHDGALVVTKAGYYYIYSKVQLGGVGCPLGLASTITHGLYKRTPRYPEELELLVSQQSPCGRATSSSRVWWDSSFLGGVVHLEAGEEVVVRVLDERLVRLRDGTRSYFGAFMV
Endpoint Name: pEC50
On this scale, pEC50 is minus log10 of a concentration expressed in M (mol/L).

Ask: // query pEC50 value for entry 3D12_var8 (antibody, human IgG4, V domains shown, human IgG4 (S241P, L248E, Kabat); also called 3D12 VL2VH4 (var8)) VH: QVQLVQSGAEVKKPGASVKVSCKASGYTFTDSEMHWVRQAPGQGLEWMGEIDPETGGTAYAQKFQGRVTLTADKSTSTAYMELSSLRSEDTAVYYCSRETDYFFDYWGQGTLVTVSS VL: DIQMTQSPSSLSASVGDRVTITCGASENIYGALNWYQRKQGKAPKLLIYGATNLADGVPSRFSGSGSGRDYTLTISSLQPEDVATYYCQNVLSTPWTFGQGTKLEIKR
Result: 9.51

Ask: For 3D12_var11 (antibody, human IgG4, V domains shown, human IgG4 (S241P, L248E, Kabat); also called 3D12 VL3VH3 (var11)) VH: QVQLVQSGAEVKKPGASVKVSCKASDYTFTDSEIHWVRQAPGQGLEWMGEIDPETGGTAYAQKFQGRVTLTADKSTSTAYMELSSLRSEDTAVYYCSRETDYFFDYWGQGTLVTVSS VL: DIQMTQSPSSLSASVGDRVTITCGASENIYGALNWYQQKPGKAPKLLIYGATNLADGVPSRFSGSGSGRDYTLTISSLQPEDVATYYCQNVLSTPWTFGQGTKLEIKR , what is its reported pEC50?
Result: 9.47

Ask: Suppose we examine the binder 3D12_var6 (antibody, human IgG4, V domains shown, human IgG4 (S241P, L248E, Kabat); also called 3D12 VL2VH2 (var6)) VH: QVQLVQSGAEVKKPGASVKVSCKASDYTFTDSEIHWVRQAPGQGLEWIGEIDPETGGTAYNQKFQGRVTLTADKSTSTAYMELSSLRSEDTAVYYCSRETDYFFDYWGQGTLVTVSS VL: DIQMTQSPSSLSASVGDRVTITCGASENIYGALNWYQRKQGKAPKLLIYGATNLADGVPSRFSGSGSGRDYTLTISSLQPEDVATYYCQNVLSTPWTFGQGTKLEIKR ; what pEC50 value has been reported?
Result: 9.51
